Target or system: Human GPR40 (Homo sapiens (Human), UniProt O14842)
Sequence (O14842 whole entry): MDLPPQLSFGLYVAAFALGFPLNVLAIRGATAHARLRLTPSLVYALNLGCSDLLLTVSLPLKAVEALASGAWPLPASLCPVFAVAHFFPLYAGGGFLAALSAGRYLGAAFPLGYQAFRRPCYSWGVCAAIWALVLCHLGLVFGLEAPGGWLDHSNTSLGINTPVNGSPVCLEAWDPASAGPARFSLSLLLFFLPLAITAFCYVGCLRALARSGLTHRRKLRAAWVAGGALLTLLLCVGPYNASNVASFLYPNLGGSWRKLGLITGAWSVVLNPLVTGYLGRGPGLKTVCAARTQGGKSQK
Run description: Inositol Phosphate Turnover (IP1) Assay 1, HEK cells stably expressing human GPR40, 3H-inositol SPA
Format: cell-based
Cond: HEK cells stably expressing human GPR40, 96-well
Quick reference for EC50 among some compounds
The answer should read as a number with its unit following.

C[C@H](C(=O)O)[C@H](c1cccc(OC[C@H]2C[C@@H]2c2cc(C(F)(F)F)ccc2F)c1)C1CC1 [Example 157] ... 130 nM
C[C@H](C(=O)O)[C@H](c1cccc(OCC2CC2c2ccccc2)c1)C1CC1 (stereo partly shown) [Example 68] ... 304 nM
C[C@H](C(=O)O)[C@H](c1cccc(OCC2CCN(Cc3cc(C(F)(F)F)ccc3C(F)(F)F)C2)c1)C1CC1 (stereo partly shown) [Example 34] ... 273 nM

Please examine the following record next.
QUERY: Report EC50, nothing else, for this compound: COc1ccc(F)cc1CN1CCC(Oc2cccc([C@@H](CC(=O)O)C3CC3)c2)C1 (stereo partly shown) [Example 12]
RESULT: 4660 nM
